Molecular target: SARS-CoV-2 S on pseudovirions (Wuhan Hu-1 / IL1/2020, last 18 amino acids removed) (SARS-CoV-2, UniProt P0DTC2 14-1273)
Assay: cell-based or functional assay
readout name: Mean IC50, pSV neutralization

1) COV_1076 (antibody, V domains shown) VH: QVQLVESGGGLVKPGGSLRLSCAASGFTFSEYSMSWIRQAPGKGLEWVSFIGGSGDYTNYADSVKGRFTISRDNAKNLLYLQMNTLRVEDTAVYYCARRGSANCGDDWWGQGTLVTVSS VL: DIVMTQSPDSLAVSLGERATINCKSSHGVLYRSNNKDHLAWYQQKPGHPPKLLIYWASIRESGVPDRFSGSGSGTDFTLTISGLQAEDVAVYYCQQYYGNPTFGGGTKVEIKR; ≥ 25 µg/ml
2) COV_1172 (antibody, V domains shown, human IgG1) VH: QVQLQESGPGLVKPSETLSLTCTVSGGSIRSYYWSWIRQPPGKGLEWIGYIYYSGSTNYSPSLKSRVTISVDTSKNQFSLKLNSVTAADTAVYYCARRGLGYCSGDSCSNAFDIWGQGTMVTVSS VL: DIQMTQSPSSLSASVGDRVTITCRASQSISSYLNWYQQKPGRAPELLIYDASSLQSGVPSGFSGSGSGTDFTLTISSLQPEDFATYYCQQSYSTPFTFGPGTKVDIKR; ≥ 25 µg/ml
